Item-by-item account of self-splicing fitness (ln)
test: self-splicing fitness, log relative to wild type (ln ratio); higher = more splicing; Tetrahymena group I intron in knt gene, E. coli kanamycin selection, DiMSum; sequences stand for … in CUCUCU…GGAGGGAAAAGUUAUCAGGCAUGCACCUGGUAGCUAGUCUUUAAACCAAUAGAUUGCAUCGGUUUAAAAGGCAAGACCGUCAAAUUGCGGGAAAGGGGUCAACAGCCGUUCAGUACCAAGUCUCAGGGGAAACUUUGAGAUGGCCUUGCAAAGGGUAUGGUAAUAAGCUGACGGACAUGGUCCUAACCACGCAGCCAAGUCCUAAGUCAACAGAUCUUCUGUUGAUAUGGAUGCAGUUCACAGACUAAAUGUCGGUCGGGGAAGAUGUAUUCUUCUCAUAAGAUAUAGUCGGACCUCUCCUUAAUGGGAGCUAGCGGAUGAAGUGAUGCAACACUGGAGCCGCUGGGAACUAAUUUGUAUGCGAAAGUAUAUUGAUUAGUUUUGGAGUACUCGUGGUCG; details: 30 °C;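 further: selection with 25 µg/mL kanamycin versus none on LB agar overnight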
Lab note: jot down the number only; don't add units.

Task item: Name the reported self-splicing fitness (ln) value associated with the sequence CAGUAGCAAUAUUACGAACU
Reply: -1.4

Task item: Name the reported self-splicing fitness (ln) value associated with the sequence CACUAGCAAUAUUACGAAUU
Reply: -2.88
